experiment: Water/octanol distribution coefficient, log D of the compound at pH 7.4 measured after 18 hrs by LC-MS analysis; assay type: physicochemical
READOUT TYPE: logD at 18 h

* CN1Cc2cc(Cl)ccc2-n2c(nnc2[C@H]2CC[C@H](Oc3ccccc3)CC2)C1 | 3.2
* CN1Cc2cc(Cl)ccc2-n2c(nnc2[C@H]2CC[C@H](C3=NOCC3)CC2)C1 | 1
* CN(C)CC(=O)N1Cc2cc(Cl)ccc2-n2c(nnc2[C@H]2CC[C@H](Oc3ccccc3)CC2)C1 | 2.5
* CN1Cc2cc(Cl)ccc2-n2c(nnc2[C@H]2CC[C@H](n3nnc4ccccc43)CC2)C1 | 2.4

----------
experiment: Oral bioavailability in rat; format: ADME, organism-based; settings: in vivo
READOUT TYPE: bioavailability (%)

* CN1Cc2cc(Cl)ccc2-n2c(nnc2[C@H]2CC[C@H](Oc3ccccn3)CC2)C1 | 40

----------
assay: Half life in iv dosed human; format: ADME, organism-based; details: in vivo
READOUT TYPE: half-life (min)

• CN(C)CCn1cc(C(=O)N2CCC3(CC2)OCc2ccccc23)c2ccc(Cl)cc21 [RO-5028442] = 480

----------
target: Vasopressin V1a receptor (Homo sapiens); assay: Antagonist activity at human Gq5s-coupled V1a receptor expressed in CHO cells assessed as inhibition of vasopressin-induced calcium flux preincubated for 20 mins followed by vasopressin addition and measured for 5 mins by fluo-4-AM dye based FLIPR assay; format: functional, cell-based
READOUT TYPE: pKb

* CN1Cc2cc(Cl)ccc2-n2c(nnc2[C@H]2CC[C@]3(CC2)OCc2ccccc23)C1 | 9.1
* Cc1nnc(-c2ccc(-c3ccccc3)cc2)n1-c1ccccc1OCCCCCCN1CCN(C)CC1 | 8.7
* CC(=O)N1Cc2cc(Cl)ccc2-n2c(nnc2[C@H]2CC[C@H](Oc3ccccc3)CC2)C1 | 9.5
* CN1Cc2cc(Cl)ccc2-n2c(nnc2-c2ccc(-c3ccccc3)cc2)C1 | 8.6
* Clc1ccc2c(c1)CNCc1nnc([C@H]3CC[C@H](Oc4ccccc4)CC3)n1-2 | 8.7

----------
assay: Volume of distribution at steady state in iv dosed rat; type: ADME, organism-based; conditions: in vivo, read-out: Vdss
READOUT TYPE: Vd

• CN1Cc2cc(Cl)ccc2-n2c(nnc2-c2ccc(-c3ccccc3)cc2)C1 = 4 to 6 L/kg

----------
assay: Clearance in iv dosed rat relative to hepatic blood flow; format: ADME, organism-based; conditions: in vivo
READOUT TYPE: clearance

- CN1Cc2cc(Cl)ccc2-n2c(nnc2-c2ccc(-c3ccccc3)cc2)C1: 50 to 60%

----------
assay: Half life in iv dosed rat; format: ADME, organism-based; details: in vivo
READOUT TYPE: half-life (h)

• CN1Cc2cc(Cl)ccc2-n2c(nnc2-c2ccc(-c3ccccc3)cc2)C1 = 1.5

----------
target: UniProt:P37288; assay: Antagonist activity at human Gq5s-coupled V1a receptor expressed in CHO cells assessed as inhibition of vasopressin-induced calcium flux preincubated for 20 mins followed by vasopressin addition and measured for 5 mins by fluo-4-AM dye based FLIPR assay; format: functional, cell-based
Sequence (P37288 whole entry, looked up): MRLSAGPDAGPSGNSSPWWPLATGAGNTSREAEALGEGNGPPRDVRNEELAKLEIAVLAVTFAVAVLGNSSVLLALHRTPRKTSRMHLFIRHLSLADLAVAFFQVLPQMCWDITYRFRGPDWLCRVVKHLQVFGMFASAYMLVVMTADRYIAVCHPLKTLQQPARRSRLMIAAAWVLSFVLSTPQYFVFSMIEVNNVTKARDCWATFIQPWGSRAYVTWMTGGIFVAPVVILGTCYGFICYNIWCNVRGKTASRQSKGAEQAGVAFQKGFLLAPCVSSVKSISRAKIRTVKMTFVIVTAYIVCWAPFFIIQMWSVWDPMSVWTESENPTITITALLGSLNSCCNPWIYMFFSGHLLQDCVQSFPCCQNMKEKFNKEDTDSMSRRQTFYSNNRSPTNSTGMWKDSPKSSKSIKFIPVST
Please note: T applies when pKb is 9 or greater, and F applies otherwise.

• Clc1ccc2c(c1)CN(C1CCC1)Cc1nnc([C@H]3CC[C@H](Oc4ccccc4)CC3)n1-2 = T
• CN1Cc2cc(Cl)ccc2-n2c(nnc2N2CCC(O)(c3ccccc3)CC2)C1 = F
• CN1Cc2cc(Cl)ccc2-n2c(nnc2[C@H]2CC[C@H](c3ccccc3)CC2)C1 = T
• CN1Cc2cc(Cl)ccc2-n2c(nnc2N2CCC3(CC2)OCc2ccccc23)C1 = T

----------
target: UniProtKB P37288; assay: Antagonist activity at human Gq5s-coupled V1a receptor expressed in CHO cells assessed as inhibition of vasopressin-induced calcium flux preincubated for 20 mins followed by vasopressin addition and measured for 5 mins by fluo-4-AM dye based FLIPR assay; type: functional, cell-based
READOUT TYPE: pKb

• CN1Cc2cc(Cl)ccc2-n2c(nnc2C2CCN(c3ccccn3)CC2)C1 = 8.9
• CS(=O)(=O)N1Cc2cc(Cl)ccc2-n2c(nnc2[C@H]2CC[C@H](Oc3ccccc3)CC2)C1 = 9.5
• OCCN1Cc2cc(Cl)ccc2-n2c(nnc2[C@H]2CC[C@H](Oc3ccccc3)CC2)C1 = 9.6
• CN1Cc2cc(Cl)ccc2-n2c(nnc2[C@H]2CC[C@H](c3ccccn3)CC2)C1 = 9.6
• CC(C)N1Cc2cc(Cl)ccc2-n2c(nnc2[C@H]2CC[C@H](Oc3ccccc3)CC2)C1 = 9.4
• CN1Cc2cc(Cl)ccc2-n2c(nnc2N2CCC3(CC2)OCCc2ccccc23)C1 = 8.8
• CC(C)(C)OC(=O)N1Cc2cc(Cl)ccc2-n2c(nnc2[C@H]2CC[C@H](Oc3ccccc3)CC2)C1 = 8.5
• CN1Cc2cc(Cl)ccc2-n2c(nnc2[C@H]2CC[C@@]3(CC2)OCc2ccccc23)C1 = 9.2
• CN1Cc2cc(Cl)ccc2-n2c(nnc2C2CC=C(c3ccccc3)CC2)C1 (racemic) = 9.3

----------
assay: Selectivity ratio of Kb for antagonist activity at human V2 receptor to Kb for antagonist activity at human Gq5s-coupled V1a receptor expressed in CHO cells
The reader will find reported Selectivity ratio values listed item by item below.
READOUT TYPE: Selectivity ratio

- CN1Cc2cc(Cl)ccc2-n2c(nnc2-c2ccc(-c3ccccc3)cc2)C1: 30
- CC(C)(C)OC(=O)N1Cc2cc(Cl)ccc2-n2c(nnc2[C@H]2CC[C@H](Oc3ccccc3)CC2)C1: 19
- CN1Cc2cc(Cl)ccc2-n2c(nnc2[C@H]2CC[C@H](Oc3ccccn3)CC2)C1: 3888
- CN1Cc2cc(Cl)ccc2-n2c(nnc2[C@H]2CC[C@H](c3ccccc3)CC2)C1: 17
- CC(=O)N1Cc2cc(Cl)ccc2-n2c(nnc2[C@H]2CC[C@H](Oc3ccccc3)CC2)C1: 1055

----------
test: Water/octanol distribution coefficient, log D of the compound at pH 7.4 measured after 18 hrs by LC-MS analysis; format: physicochemical
The reader will find reported logD at 18 h values listed item by item below.
READOUT TYPE: logD at 18 h

- CC(=O)N1Cc2cc(Cl)ccc2-n2c(nnc2[C@H]2CC[C@H](Oc3ccccc3)CC2)C1: 2.9
- CN(C)S(=O)(=O)N1Cc2cc(Cl)ccc2-n2c(nnc2[C@H]2CC[C@H](Oc3ccccc3)CC2)C1: 4.1
- CS(=O)(=O)N1Cc2cc(Cl)ccc2-n2c(nnc2[C@H]2CC[C@H](Oc3ccccc3)CC2)C1: 3.1
- Cc1cc(C)nc([C@H]2CC[C@H](c3nnc4n3-c3ccc(Cl)cc3CN(C)C4)CC2)n1: 2
- OCCN1Cc2cc(Cl)ccc2-n2c(nnc2[C@H]2CC[C@H](Oc3ccccc3)CC2)C1: 2.7
- Clc1ccc2c(c1)CNCc1nnc([C@H]3CC[C@H](Oc4ccccc4)CC3)n1-2: 2.7

----------
assay: Intrinsic clearance in rat liver microsomes assessed per mg protein; format: ADME, Microsome; conditions: read-out: CLH
The reader will find reported microsomal CLint values listed item by item below.
READOUT TYPE: microsomal CLint (µL/min/mg)

• CN1Cc2cc(Cl)ccc2-n2c(nnc2C2CCN(c3ccccn3)CC2)C1 = 72
• CN1Cc2cc(Cl)ccc2-n2c(nnc2N2CCC3(CC2)OCc2ccccc23)C1 = 718
• CN1Cc2cc(Cl)ccc2-n2c(nnc2[C@H]2CC[C@@]3(CC2)OCc2ccccc23)C1 = 1000
• CN1Cc2cc(Cl)ccc2-n2c(nnc2N2CCC3(CC2)COCc2ccccc23)C1 = 949
• CN1Cc2cc(Cl)ccc2-n2c(nnc2N2CCC3(CC2)OCCc2ccccc23)C1 = 550
• CN1Cc2cc(Cl)ccc2-n2c(nnc2N2CCC3(CC2)SCc2ccccc23)C1 = 493
• CN1Cc2cc(Cl)ccc2-n2c(nnc2N2CCC(O)(c3ccccc3)CC2)C1 = 435
• CN1Cc2cc(Cl)ccc2-n2c(nnc2[C@H]2CC[C@]3(CC2)OCc2ccccc23)C1 = 206

----------
experiment: Water/octanol distribution coefficient, log D of the compound at pH 7.4 measured after 18 hrs by LC-MS analysis; assay type: physicochemical
READOUT TYPE: logD at 18 h

• Cc1cccc([C@H]2CC[C@H](c3nnc4n3-c3ccc(Cl)cc3CN(C)C4)CC2)n1 = 2.5 to 3.2
• CN1Cc2cc(Cl)ccc2-n2c(nnc2[C@H]2CC[C@H](c3noc4ccccc43)CC2)C1 = > 3
• CN1Cc2cc(Cl)ccc2-n2c(nnc2[C@H]2CC[C@H](c3ncc(F)cc3F)CC2)C1 = 2.5 to 3.2
• CN1Cc2cc(Cl)ccc2-n2c(nnc2[C@H]2CC[C@H](c3ncccc3Cl)CC2)C1 = 2.5 to 3.2
• CN1Cc2cc(Cl)ccc2-n2c(nnc2[C@H]2CC[C@H](c3ccc(F)cn3)CC2)C1 = 2.5 to 3.2

----------
The reader will find reported logD at 18 h values listed item by item below.
assay: Water/octanol distribution coefficient, log D of the compound at pH 7.4 measured after 18 hrs by LC-MS analysis; assay type: physicochemical
READOUT TYPE: logD at 18 h

* Clc1ccc2c(c1)CN(C1CCC1)Cc1nnc([C@H]3CC[C@H](Oc4ccccc4)CC3)n1-2 | > 3
* CN1Cc2cc(Cl)ccc2-n2c(nnc2[C@H]2CC[C@H](c3cccc(Cl)n3)CC2)C1 | 2.5 to 3.2
* CN1Cc2cc(Cl)ccc2-n2c(nnc2[C@H]2CC[C@H](c3ncccc3F)CC2)C1 | 2.5 to 3.2
